B1: library; numbered along this chain (parent)
chain: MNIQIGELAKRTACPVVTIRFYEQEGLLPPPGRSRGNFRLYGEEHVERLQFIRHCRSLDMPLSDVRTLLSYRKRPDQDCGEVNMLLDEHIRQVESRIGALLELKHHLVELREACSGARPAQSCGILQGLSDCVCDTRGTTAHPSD

- Variants of: B1
- procedure.details: sfGFP reporter fluorescence (15 h) (µM FITC); higher = higher leak
- measurement.conditions: library round: Round 0; ligand: none

{"mutant.designation": "L68I", "sfGFP reporter fluorescence": 0.0599}
{"mutant.designation": "L62Q", "sfGFP reporter fluorescence": 0.0597}
{"mutant.designation": "E43G", "sfGFP reporter fluorescence": 0.0583}
{"mutant.designation": "C55S", "sfGFP reporter fluorescence": 0.0603}
{"mutant.designation": "C55H", "sfGFP reporter fluorescence": 0.0585}
